The origin of these recorded values is ChEMBL document CHEMBL1201862.

Test system: SW-620
Test: NCI tumour cell line growth inhibition, 48 h
Activity calls are given as the source filed them. Rule as the data show it: active = GI50 up to about 1.1 µM and inactive = higher.
The reply should name one outcome from active, inactive

Solved entries:
COc1ccc(/C=C\c2cc(OC)c(OC)c(OC)c2)cc1OC(=O)NCCN(C)C :: active
N#Cc1c(NC(=S)NCc2ccccc2)sc2c1CCN(N1CCc3c(sc(NC(=S)NCc4ccccc4)c3C#N)C1)C2 :: inactive
O=C(c1cccs1)N(C(=S)OCc1ccccn1)c1ccccc1 :: inactive
C[C@]12CCC(=O)C=C1CC[C@@H]1[C@@H]2CC[C@]2(C)C(=O)/C(=C/c3ccncc3)C[C@@H]12 :: inactive
CSC1=N/C(=C\c2ccccc2)C(=O)N1CN1CCOCC1 :: inactive
COc1cc(O)c2c(O)c3c(=O)oc(C)cc3c(OC)c2c1 [PAEPALANTINE] :: inactive
O=[N+]([O-])c1cc(Cl)ccc1S(=O)(=O)c1ccc(Cl)cc1[N+](=O)[O-] :: inactive
CC1(C)NC(=O)N(CCCCCCN2C(=O)NC(C)(C)C2=O)C1=O :: inactive
Cc1[nH]n(-c2nc(O)c(C)c(=O)[nH]2)c(=O)c1CCO :: inactive

Let's switch to this molecule now.
Task: In this assay, the call recorded for `c1ccc2c(c1)cc1n2CCc2c-1[nH]c1ccccc21` was what?
Result: inactive

###

System: DMS-114
Experiment: NCI tumour cell line growth inhibition, 48 h
Calls of active or inactive are those of the source. Cut-off read from the data, not from the text of the source: active = GI50 up to about 1.1 µM and inactive = higher.
Reported GI50 values for a set of compounds

Some solved entries appear below for comparison.
C/C(CN1C(=O)c2ccccc2C1=O)=N\NS(=O)(=O)c1ccccc1 :: > 100 µM (inactive)
CCC1CC(C)=CCN1S(=O)(=O)c1ccc(C)cc1 (stereo unspecified) :: 15.9 µM (inactive)
C[C@@H]1C[C@]2(C[C@@H](C)[C@H]3C(C[C@@]4(C)CCC[C@@H]5C6=C[C@H](CCC34C)OC6=CC(=O)OC5(C)C)O2)OC1=O (stereo partly specified) :: > 51.5 µM (inactive)
COc1cc(CC2c3cc(OC)c(OC)cc3CCN2C)c(C(=O)O)cc1OC (stereo unspecified) :: > 100 µM (inactive)
O=C(CC1C(=O)c2ccccc2C1=C1C(=O)c2ccccc2C1=O)c1ccccc1 (stereo unspecified) :: > 100 µM (inactive)

Task: Endpoint output: GI50 of CSc1nc2c(c(O)c(C)c(=O)n2C2OCC(OC(C)=O)C(OC(C)=O)C2OC(C)=O)c(=O)n1C (stereo unspecified) . Value?
Result: > 100 µM (inactive)

Task: Endpoint output: GI50 of `COc1ccc(CNc2cc(OC)c(OC)c(OC)c2)cc1` . Value?
Result: 3.01 µM (inactive)

Task: Endpoint output: GI50 of C=CCCC(O)c1cc(C)c(O)c(C)c1 (stereo unspecified) . Value?
Result: > 100 µM (inactive)

###

Tested on: BT-549
Assay: NCI tumour cell line growth inhibition, 48 h
The source made the active and inactive calls. Rule as the data show it: active = GI50 up to about 1.1 µM and inactive = higher.
measurement.type: GI50

Some solved entries appear below for comparison.
CC(Oc1ccc(Oc2cnc3ccc(Cl)cc3n2)cc1)C(=O)O (stereo not given) :: > 80.2 µM (inactive)
COc1ccc(/C=C/C(=O)N[C@@H]2C(=O)N3[C@@H]2SC(C)(C)[C@@H]3C(=O)O)cc1OC :: > 100 µM (inactive)

Task: Endpoint output: GI50 of `CCOP(=O)(OCC)/C(C#N)=C/c1ccc(-c2ccc(F)cc2F)o1` . Value?
Result: 11.7 µM (inactive)

Task: Endpoint output: GI50 of `Cc1ccc(/N=C2/C(c3ccccc3)=C(SC3=C(c4ccccc4)/C(=N/c4ccc(C)cc4)c4ccccc43)c3ccccc32)cc1` . Value?
Result: 23.7 µM (inactive)

Task: Endpoint output: GI50 of COc1cc(O)c2c(O)c3c(=O)oc(C)cc3c(OC)c2c1 [PAEPALANTINE] . Value?
Result: 34.8 µM (inactive)

Task: Endpoint output: GI50 of `Cc1ccc(F)c2[nH]c(-c3ccccc3)cc(=O)c12` . Value?
Result: 7.06 µM (inactive)

Task: Endpoint output: GI50 of CCCN1C(=O)CC(C)N(Cc2ccccc2Cl)C1=S (stereo not given) . Value?
Result: 24.4 µM (inactive)

Task: Endpoint output: GI50 of `CCOC(=O)C1(C(=O)OCC)OC(C)=NC1(C(=O)OC)C(=O)OC` . Value?
Result: > 31.6 µM (inactive)

Task: Endpoint output: GI50 of `C/C(=N/NC(=O)c1ccncc1)C(F)(F)F` . Value?
Result: > 100 µM (inactive)

Task: Endpoint output: GI50 of `C[C@H](NC1=C(Cl)C(=O)c2c(O)ccc(O)c2C1=O)C(=O)Nc1ccc([N+](=O)[O-])cc1` . Value?
Result: 4.02 µM (inactive)

###

Tested on: PC-3
Assay: NCI tumour cell line growth inhibition, 48 h
Calls of active or inactive are those of the source. Cut-off read from the data, not from the text of the source: active = GI50 up to about 1.1 µM and inactive = higher.
The reply should name one outcome from active, inactive

O=S1(=O)Cc2ccc3c4c2-c2c(ccc5ccc(c-4c25)CS(=O)(=O)C3)C1 :: inactive

Task: In this assay, the call recorded for `COc1cc(NCc2ccc3nc(N)nc(N)c3c2C)cc(OC)c1OC` was what?
Result: active

Task: In this assay, the call recorded for `Cc1ccc(C(=O)/C=C2\Nc3cccnc3NC2=O)cc1` was what?
Result: inactive

Task: In this assay, the call recorded for `CCCCCCSCC/C(C)=N\OC` was what?
Result: inactive

Task: In this assay, the call recorded for `Brc1ccc2c(-c3csc(-c4c[nH]c5ccc(Br)cc45)n3)c[nH]c2c1` was what?
Result: inactive

Task: In this assay, the call recorded for `CCOC(=O)/C(C#N)=C\c1ccc(N(CCC(=O)O)CCC(=O)O)c(I)c1` was what?
Result: inactive

Task: In this assay, the call recorded for `COc1ccc(CCn2ccc(=O)c(O)c2C)cc1OC` was what?
Result: inactive

Task: In this assay, the call recorded for CC(C)CC(=O)CC(O)C(Cl)(Cl)Cl (stereo unspecified) was what?
Result: inactive

Task: In this assay, the call recorded for `Cc1n[nH]c(=O)n1/N=C/c1ccc([N+](=O)[O-])o1` was what?
Result: inactive

Task: In this assay, the call recorded for `SC1=NC2(CCCCCC2)NN1c1ccccc1` was what?
Result: inactive

Task: In this assay, the call recorded for `O=C1c2ccccc2-c2ccc(/N=[N+](/[O-])c3ccc4c(c3)C(=O)c3ccccc3-4)cc21` was what?
Result: inactive

###

System: M14
Test: NCI tumour cell line growth inhibition, 48 h
Activity calls are given as the source filed them. Rule as the data show it: active = GI50 up to about 1.1 µM and inactive = higher. Where a SMILES comes first, the peptide text is derived from it. The star is where a group is joined. Cbz = O=C(OCc1ccccc1)*
The reply should name one outcome from active, inactive

Task: In this assay, the call recorded for CCOC(=O)CNC(=O)C(C)NC(=O)C(NC(=O)OCc1ccccc1)C(C)C (stereo not drawn) (Cbz-Val-Ala-Gly-OEt; configuration not given here) was what?
Result: inactive

Task: In this assay, the call recorded for CCOc1ccc(NCC2CC/C(=C\c3ccc(Cl)cc3)C2=O)cc1 (stereo not given) was what?
Result: inactive

Task: In this assay, the call recorded for CCOC(=O)CC(NC(=O)c1nc[nH]c1[N+](=O)[O-])C(=O)OCC (stereo not given) was what?
Result: inactive

Task: In this assay, the call recorded for `CCOC(=O)COC1=Nc2cc(OC)c(OC)c3nc(Cl)cc(c23)C1=O` was what?
Result: inactive

Task: In this assay, the call recorded for `CC[C@]12C=CCN3CC[C@@]4(c5cc(Br)c(OC)cc5N(C)[C@H]4[C@@](O)(C(=O)N[C@@H](Cc4ccc(O)cc4)C(=O)OC)[C@@H]1O)[C@@H]32` was what?
Result: inactive

Task: In this assay, the call recorded for CC1(C)CC2(C)ON=C(c3ccccc3)N2c2ccccc2N1 (stereo not given) was what?
Result: inactive

Task: In this assay, the call recorded for CCC1CC(C)=CCN1S(=O)(=O)c1ccc(C)cc1 (stereo not given) was what?
Result: inactive

Task: In this assay, the call recorded for `Cc1cc2occ(C)c(=O)c2c2c1OC(C)(C)S2` was what?
Result: inactive

###

System: U-251
Assay: NCI tumour cell line growth inhibition, 48 h
Calls of active or inactive are those of the source. No stated cut-off is given here; in the data, active = GI50 up to about 1.1 µM and inactive = higher.
The reply should name one outcome from active, inactive

Solved entries:
COc1ccc(NC(=O)C2=CC(=O)c3ccc(O)cc3C2=O)c(OC)c1 :: inactive
O=C(c1cc(Cl)cc(Cl)c1)N(C(=S)OC12CC3CC(CC(C3)C1)C2)c1ccccc1 :: inactive
Cc1cn(C2CC(O)C(CO)O2)c(=O)[nH]c1=O (configuration not stated) :: inactive
O=C(/C=C\c1cccc2ccccc12)c1ccc(Br)cc1 :: inactive
COc1cc2cc[n+]3c(C)c4cc(OC)c(OC)cc4c([O-])c3c2cc1OC :: inactive

Task: In this assay, the call recorded for `Cc1ccc(/N=C2/C(c3ccccc3)=C(SC3=C(c4ccccc4)/C(=N/c4ccc(C)cc4)c4ccccc43)c3ccccc32)cc1` was what?
Result: inactive

Task: In this assay, the call recorded for `Cc1ccc(F)c2[nH]c(-c3ccccc3)cc(=O)c12` was what?
Result: inactive

Task: In this assay, the call recorded for `COc1cc2oc(-c3ccc(O)cc3)cc(=O)c2c(OC)c1OC` was what?
Result: inactive

Task: In this assay, the call recorded for `C[C@]12CCC(=O)C=C1CC[C@@H]1[C@@H]2CC[C@]2(C)C(=O)/C(=C/c3ccncc3)C[C@@H]12` was what?
Result: inactive

Task: In this assay, the call recorded for `CCN1C(=O)C(=C/C=C/c2ccc([N+](=O)[O-])cc2)C(=O)N(CC)C1=S` was what?
Result: inactive

Task: In this assay, the call recorded for `CC[C@]12C=CCN3CC[C@@]4(c5cc(Br)c(OC)cc5N(C)[C@H]4[C@@](O)(C(=O)N[C@@H](Cc4ccc(O)cc4)C(=O)OC)[C@@H]1O)[C@@H]32` was what?
Result: inactive

Task: In this assay, the call recorded for `NC(=O)N/N=C1\C[C@H]2CCCC[C@H]2C1` was what?
Result: inactive

Task: In this assay, the call recorded for COc1ccc(CC[N+]2(C)COc3cc4oc(=O)cc(C)c4cc3C2)cc1OC (configuration not stated) was what?
Result: inactive
